System: BT-549 breast
Test: NCI tumour cell line growth inhibition, 48 h
Field: TGI. Provide a value for each of the compounds that follow.

Solved cases (5 shown):
Compound	Target entity	TGI
COc1cccc(NC(=O)c2sc3nc4c(cc3c2N)CN(Cc2ccccc2)CC4)c1	BT-549 breast	26.2 µM
CC(C)(C)c1n[nH]c(=S)n(/N=C/c2ccc(F)c(Oc3ccccc3)c2)c1=O	BT-549 breast	94.5 µM
O[C@H]1CO[C@H]2[C@@H]1OC[C@@H]2Oc1ccc(Nc2ccnc(Nc3ccc(O[C@H]4CO[C@H]5[C@@H]4OC[C@@H]5O)c(Cl)c3)n2)cc1Cl	BT-549 breast	8.14 µM
COC(=O)C1CC2(CCC1=O)Cc1ccccc1C2=O (stereo not given)	BT-549 breast	> 100 µM
O=c1oc2ccccc2c(Nc2ccc3c(c2)S(=O)(=O)c2ccccc2O3)c1[N+](=O)[O-]	BT-549 breast	70.4 µM

Could you report TGI for every entry in the following list?
1. CCOC(=O)CSc1nc(-c2ccccc2)c(C#N)c(=O)[nH]1
2. CCC1C(c2cc(OC)c(OC)c(OC)c2)c2cc3c(cc2OC1N1CCCC1)OCO3 (stereo not given)
3. O=C(Cn1c2c(c3ccccc31)CCCC2)NC1CCCCC1
4. C=CC(=O)Nc1cccc(C)c1Nc1cc(-c2cccnc2Cc2c(C)c(OC)cc(OC)c2C)ncn1
5. Cc1c(/C=N/NC(=S)Nc2ccccc2Cl)c(=O)n(-c2ccccc2)n1C

Marked response:
> 100 µM
49.4 µM
> 100 µM
29.6 µM
> 100 µM
